All values here come from ChEMBL document CHEMBL1132907.

# System: Jurkat
# testName: Compound was evaluated for calcium mobilization in Jurkat cells
# Assay type: functional, cell-based
# experimentalContext: Homo sapiens
resultType: IC50

query: Fill: IC50 (Jurkat) for this molecule Cc1ccccc1NC(=O)NCCCC[C@@H](CC(=O)O)NC(=O)[C@@](C)(Cc1c[nH]c2ccccc12)NC(=O)OC1C2CC3CC(C2)CC1C3 (stereo partly specified)
result: 40 nM

---

Kindly state pIC50 for each of the entries shown.
# measuredOn: Gastrin/cholecystokinin type B receptor (Mus musculus)
# Sequence (P56481 whole entry): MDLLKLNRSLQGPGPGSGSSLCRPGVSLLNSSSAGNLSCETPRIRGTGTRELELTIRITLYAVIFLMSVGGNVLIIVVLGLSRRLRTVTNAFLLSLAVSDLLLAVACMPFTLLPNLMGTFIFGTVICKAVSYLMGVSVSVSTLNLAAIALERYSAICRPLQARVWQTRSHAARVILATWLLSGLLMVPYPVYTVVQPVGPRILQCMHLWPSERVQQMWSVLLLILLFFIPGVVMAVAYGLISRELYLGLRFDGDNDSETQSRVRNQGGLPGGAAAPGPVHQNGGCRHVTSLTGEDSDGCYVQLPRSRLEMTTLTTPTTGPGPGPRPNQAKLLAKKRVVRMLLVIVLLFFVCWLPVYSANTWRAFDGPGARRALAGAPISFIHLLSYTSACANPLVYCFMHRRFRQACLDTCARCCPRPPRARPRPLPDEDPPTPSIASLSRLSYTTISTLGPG
# testName: Binding affinity towards Cholecystokinin type B receptor in mouse cortex membrane
Give bare numbers, as −log10 of the molar value.

Solved cases below.
compound	reportedResult
Cc1ccccc1NC(=O)NCCCC[C@@H](CC(=O)O)NC(=O)[C@@](C)(Cc1c[nH]c2ccccc12)NC(=O)OC1C2CC3CC(C2)CC1C3 (stereo partly drawn) [PD-170292]	8.17
CC(Cc1c[nH]c2ccccc12)(NC(=O)OC1C2CC3CC(C2)CC1C3)C(=O)N[C@H](CC(=O)O)Cc1ccc(F)cc1 (single isomer, unassigned)	10.08

Switching to the query record.
query: Write pIC50 of O=C(CC(Cc1c[nH]c2ccccc12)(NC(=O)OC1C2CC3CC(C2)CC1C3)C(=O)NCCc1ccccc1)NCCCCNC(=O)Nc1ccccc1Cl (stereo not drawn) ; system used: Gastrin/cholecystokinin type B receptor (Mus musculus)
result: 5.44
